experiment: Binding affinity to sodium channel
pIC50: −log10 of the molar value.

CHEMICAL_STRING: CC(C)CN(C(=O)c1cccc(Cl)c1Cl)[C@H]1CCNC1
pIC50: 5.44

====

molecular target: Voltage-gated inwardly rectifying potassium channel KCNH2 (Homo sapiens)
Sequence (Q12809 whole entry): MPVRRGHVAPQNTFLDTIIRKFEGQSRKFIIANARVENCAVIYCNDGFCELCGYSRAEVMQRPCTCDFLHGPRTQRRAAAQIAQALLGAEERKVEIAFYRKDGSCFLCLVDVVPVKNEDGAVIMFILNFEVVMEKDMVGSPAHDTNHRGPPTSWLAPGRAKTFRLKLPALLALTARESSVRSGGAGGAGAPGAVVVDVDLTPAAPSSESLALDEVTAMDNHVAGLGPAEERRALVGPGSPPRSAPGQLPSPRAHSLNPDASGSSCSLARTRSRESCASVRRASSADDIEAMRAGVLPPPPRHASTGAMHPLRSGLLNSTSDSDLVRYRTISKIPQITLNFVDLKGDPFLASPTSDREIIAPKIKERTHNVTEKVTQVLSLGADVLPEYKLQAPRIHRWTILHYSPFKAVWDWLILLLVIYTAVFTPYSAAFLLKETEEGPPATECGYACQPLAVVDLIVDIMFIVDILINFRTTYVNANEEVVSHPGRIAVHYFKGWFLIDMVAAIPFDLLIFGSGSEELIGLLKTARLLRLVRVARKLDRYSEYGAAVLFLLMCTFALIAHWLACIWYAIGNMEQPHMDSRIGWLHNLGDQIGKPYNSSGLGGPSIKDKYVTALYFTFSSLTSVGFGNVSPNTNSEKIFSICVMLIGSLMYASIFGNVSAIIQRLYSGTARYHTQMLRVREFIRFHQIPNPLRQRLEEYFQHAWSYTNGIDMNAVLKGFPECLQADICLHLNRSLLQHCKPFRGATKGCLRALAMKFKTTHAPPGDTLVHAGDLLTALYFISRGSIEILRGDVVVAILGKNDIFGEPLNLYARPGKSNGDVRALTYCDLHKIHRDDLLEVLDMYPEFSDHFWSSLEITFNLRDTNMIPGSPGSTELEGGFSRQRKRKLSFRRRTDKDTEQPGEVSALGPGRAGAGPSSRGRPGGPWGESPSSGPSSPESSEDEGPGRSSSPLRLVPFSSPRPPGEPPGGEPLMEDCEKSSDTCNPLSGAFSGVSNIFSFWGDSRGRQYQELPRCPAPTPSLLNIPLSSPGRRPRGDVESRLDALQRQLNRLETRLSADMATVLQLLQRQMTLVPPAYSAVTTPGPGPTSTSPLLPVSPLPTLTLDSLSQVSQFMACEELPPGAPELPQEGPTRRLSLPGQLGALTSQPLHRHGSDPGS

CHEMICAL_STRING: O=C(c1cccc(Cl)c1Cl)N(c1ccccc1)[C@H]1CCNC1
UNITS: µM
REPORTED_RELATION: =
IC50: 7.92

CHEMICAL_STRING: Cc1c(Cl)cccc1C(=O)N(CC(C)C)[C@H]1CCNC1
UNITS: µM
REPORTED_RELATION: =
IC50: 52.4

CHEMICAL_STRING: CCN(C(=O)c1cccc(Cl)c1Cl)[C@H]1CCNC1
UNITS: µM
REPORTED_RELATION: >
IC50: 20

CHEMICAL_STRING: CC(C)CN(C(=O)c1cc(Cl)ccc1Cl)[C@H]1CCNC1
UNITS: µM
REPORTED_RELATION: =
IC50: 19.8

CHEMICAL_STRING: CC(C)CN(C(=O)c1cccc(Cl)c1F)[C@H]1CCNC1
UNITS: µM
REPORTED_RELATION: >
IC50: 10

CHEMICAL_STRING: O=C(c1cccc(Cl)c1Cl)N(C1=CCOC=C1)[C@H]1CCNC1
UNITS: µM
REPORTED_RELATION: >
IC50: 40

CHEMICAL_STRING: CC(C)CN(C(=O)c1ccccc1C(C)C)[C@H]1CCNC1
UNITS: µM
REPORTED_RELATION: =
IC50: 12.9

CHEMICAL_STRING: CC(C)CN(C(=O)c1cc(Cl)cc(Cl)c1)[C@H]1CCNC1
UNITS: µM
REPORTED_RELATION: >
IC50: 10

CHEMICAL_STRING: O=C(c1cccc(Cl)c1Cl)N(CCC1CC1)[C@H]1CCNC1
UNITS: µM
REPORTED_RELATION: =
IC50: 7.14

CHEMICAL_STRING: CC(C)CN(C(=O)c1cccc(F)c1C(F)(F)F)[C@H]1CCNC1
UNITS: µM
REPORTED_RELATION: >
IC50: 10

CHEMICAL_STRING: CC(C)CN(C(=O)c1cccc(Cl)c1Cl)[C@H]1CCNC1
UNITS: µM
REPORTED_RELATION: =
IC50: 20

CHEMICAL_STRING: CCCN(C(=O)c1cccc(Cl)c1Cl)[C@H]1CCNC1
UNITS: µM
REPORTED_RELATION: >
IC50: 18.6

CHEMICAL_STRING: CCC(CC)N(C(=O)c1cccc(Cl)c1Cl)[C@H]1CCNC1
UNITS: µM
REPORTED_RELATION: =
IC50: 7.74
